Here the recorded EC50 is given for each entry.
Target: human RXFP1 (Homo sapiens, UniProt Q9HBX9)
Test: hRXFP1 HEK293 cAMP assay (HTRF)
Conditions: HEK293 cells stably expressing human RXFP1; 30 min at rt; intracellular cAMP by HTRF
Metric: EC50

COc1ccc(C2CC3(C2)CN(CCS(C)(=O)=O)C3)cc1C(=O)Nc1c(C(=O)Nc2ccc(F)c(C(F)(F)F)c2)sc2cc(C(F)(F)F)ccc12 [Example 205] : 1100 nM
COc1ccc(C2CC2CO)cc1C(=O)Nc1c(C(=O)Nc2ccc(F)c(C(F)(F)F)c2)sc2cc(C(F)(F)F)ccc12 (stereo not drawn) [Example 49] : 617 nM
COc1ccc(C(=O)N2CC(C(C)(C)O)C2)cc1C(=O)Nc1c(C(=O)Nc2ccc(F)c(C(F)(F)F)c2)sc2cc(C(F)(F)F)ccc12 [Example 179] : 179 nM

###

Target: human RXFP1 (Homo sapiens, UniProt Q9HBX9)
Sequence (Q9HBX9 1-757): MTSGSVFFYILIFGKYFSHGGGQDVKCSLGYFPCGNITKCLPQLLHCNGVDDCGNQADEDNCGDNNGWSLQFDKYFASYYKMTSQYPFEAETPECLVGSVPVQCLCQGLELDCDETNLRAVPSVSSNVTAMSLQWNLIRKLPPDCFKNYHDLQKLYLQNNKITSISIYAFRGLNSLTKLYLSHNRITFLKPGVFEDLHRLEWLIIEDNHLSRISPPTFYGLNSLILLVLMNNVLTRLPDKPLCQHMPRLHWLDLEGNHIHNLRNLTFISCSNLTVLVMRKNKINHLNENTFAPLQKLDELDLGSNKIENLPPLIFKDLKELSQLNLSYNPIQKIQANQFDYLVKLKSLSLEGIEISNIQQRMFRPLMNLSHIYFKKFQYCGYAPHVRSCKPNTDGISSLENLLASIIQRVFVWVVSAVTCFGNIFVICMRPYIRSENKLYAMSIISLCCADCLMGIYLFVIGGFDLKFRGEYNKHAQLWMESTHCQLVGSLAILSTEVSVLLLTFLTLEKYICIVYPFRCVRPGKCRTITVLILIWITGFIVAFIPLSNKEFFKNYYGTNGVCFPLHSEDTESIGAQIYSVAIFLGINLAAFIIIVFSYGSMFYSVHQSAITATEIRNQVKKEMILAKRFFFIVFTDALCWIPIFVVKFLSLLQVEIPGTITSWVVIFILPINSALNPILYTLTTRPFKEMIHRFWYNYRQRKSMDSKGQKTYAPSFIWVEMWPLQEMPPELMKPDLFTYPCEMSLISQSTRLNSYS
Test: hRXFP1 HEK293 cAMP assay (HTRF)
Conditions: HEK293 cells stably expressing human RXFP1; 30 min at rt; intracellular cAMP by HTRF
pEC50: −log10 of the molar value.
Reported pEC50 values are given for each entry in this list.
Metric: pEC50

COc1ccc(-c2cc(CO)on2)cc1C(=O)Nc1c(C(=O)Nc2ccc(F)c(C(F)(F)F)c2)sc2cc(C(F)(F)F)ccc12 : 5.90
COc1ccc(C(=O)N2CCC(CO)CC2)cc1C(=O)Nc1c(C(=O)Nc2ccc(F)c(C(F)(F)F)c2)sc2cc(C(F)(F)F)ccc12 : 6.55
COc1ccc(C2CCCC(C)(O)C2)cc1C(=O)Nc1c(C(=O)Nc2ccc(F)c(C(F)(F)F)c2)sc2cc(C(F)(F)F)ccc12 (single isomer, unassigned) [Example 34] : 6.07
COc1ccc(C(=O)N2CC3(COC3)C2)cc1C(=O)Nc1c(C(=O)Nc2ccc(F)c(C(F)(F)F)c2)sc2cc(C3CC3)ncc12 : 5.85
COc1ccc(C(=O)N2CC3(C2)CS(=O)(=O)C3)cc1C(=O)Nc1c(C(=O)Nc2ccc(F)c(C(F)(F)F)c2)sc2cc(C3CC3)ncc12 : 5.87
COc1ccc(C2CC3(C2)CN(S(C)(=O)=O)C3)cc1C(=O)Nc1c(C(=O)Nc2ccc(F)c(C(F)(F)F)c2)sc2cc(C(F)(F)F)ccc12 : 5.93

###

Listing of recorded EC50 by entry.
Target: human RXFP1 (Homo sapiens, UniProt Q9HBX9)
Assay: hRXFP1 HEK293 cAMP assay (HTRF)
Conditions: HEK293 cells stably expressing human RXFP1; 30 min at rt; intracellular cAMP by HTRF
Metric: EC50 (µM)

COc1ccc(C2=NOC3CC(NC(=O)C(C)(C)O)CC23)cc1C(=O)Nc1c(C(=O)Nc2ccc(F)c(C(F)(F)F)c2)sc2cc(C(F)(F)F)ccc12 (single isomer, unassigned) [Example 267] : 3.13
COc1ccc(N2CCCC(C(C)(C)O)C2)cc1C(=O)Nc1c(C(=O)Nc2ccc(F)c(C(F)(F)F)c2)sc2cc(C(F)(F)F)ccc12 (single isomer, unassigned) [Example 108] : 1.43
COc1ccc(C2CC2C(=O)NC2CCOCC2)cc1C(=O)Nc1c(C(=O)Nc2ccc(F)c(C(F)(F)F)c2)sc2cc(C(F)(F)F)ccc12 (single isomer, unassigned) [Example 157] : 1.04
COc1ccc(-c2cnc(C3(O)CCS(=O)(=O)C3)nc2)cc1C(=O)Nc1c(C(=O)Nc2ccc(F)c(C(F)(F)F)c2)sc2cc(C(F)(F)F)ccc12 (single isomer, unassigned) [Example 24] : 3.36
COc1ccc(C2CC2C(C)(C)O)cc1C(=O)Nc1c(C(=O)Nc2ccc(F)c(C(F)(F)F)c2)sc2cc(C(F)(F)F)ccc12 (single isomer, unassigned) [Example 161] : 4.94

###

Measured pEC50 accompanies every entry in the list below.
Molecular target: human RXFP1 (Homo sapiens)
Assay: hRXFP1 HEK293 cAMP assay (HTRF)
Details: HEK293 cells stably expressing human RXFP1; 30 min at rt; intracellular cAMP by HTRF
pEC50: −log10 of the molar value.
Metric: pEC50

COc1ccc(C2=NOC3CN(C(=O)CO)CC23)cc1C(=O)Nc1c(C(=O)Nc2ccc(F)c(C(F)(F)F)c2)sc2cc(C(F)(F)F)ccc12 (single isomer, unassigned) [Example 242] : 8.01
COc1ccc(C2CCCN(CCO)CC2)cc1C(=O)Nc1c(C(=O)Nc2ccc(F)c(C(F)(F)F)c2)sc2cc(C(F)(F)F)ccc12 (single isomer, unassigned) [Example 72] : 5.37
COc1ccc(-c2cnc(C3(O)CCS(=O)(=O)C3)nc2)cc1C(=O)Nc1c(C(=O)Nc2ccc(F)c(C(F)(F)F)c2)sc2cc(C(F)(F)F)ccc12 (single isomer, unassigned) [Example 23] : 5.51
COc1ccc(C2CCCN(C(C)C)CC2)cc1C(=O)Nc1c(C(=O)Nc2ccc(F)c(C(F)(F)F)c2)sc2cc(C(F)(F)F)ccc12 (stereo not shown) : 5.47

###

Target: human RXFP1 (Homo sapiens)
Sequence (Q9HBX9 1-757): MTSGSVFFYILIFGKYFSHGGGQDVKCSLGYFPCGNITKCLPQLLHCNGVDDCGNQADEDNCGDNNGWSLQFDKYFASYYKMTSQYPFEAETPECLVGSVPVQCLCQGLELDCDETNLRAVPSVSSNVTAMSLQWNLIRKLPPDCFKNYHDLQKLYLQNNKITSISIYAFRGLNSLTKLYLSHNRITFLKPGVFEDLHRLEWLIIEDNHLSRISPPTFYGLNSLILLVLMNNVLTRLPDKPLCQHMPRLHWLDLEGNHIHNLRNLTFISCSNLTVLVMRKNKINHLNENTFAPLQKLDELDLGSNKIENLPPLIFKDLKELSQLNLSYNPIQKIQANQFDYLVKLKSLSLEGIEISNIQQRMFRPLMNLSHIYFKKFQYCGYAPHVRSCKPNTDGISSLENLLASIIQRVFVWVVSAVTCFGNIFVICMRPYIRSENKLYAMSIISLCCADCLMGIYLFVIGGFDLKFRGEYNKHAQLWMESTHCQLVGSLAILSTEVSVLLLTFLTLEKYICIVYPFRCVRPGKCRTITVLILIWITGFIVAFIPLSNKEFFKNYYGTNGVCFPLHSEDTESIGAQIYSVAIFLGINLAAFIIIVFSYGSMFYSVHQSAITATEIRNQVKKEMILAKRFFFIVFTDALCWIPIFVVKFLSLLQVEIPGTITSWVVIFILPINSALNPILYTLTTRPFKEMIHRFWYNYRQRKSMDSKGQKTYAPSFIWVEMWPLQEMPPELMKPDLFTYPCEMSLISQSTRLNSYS
Assay: hRXFP1 HEK293 cAMP assay (HTRF)
Conditions: HEK293 cells stably expressing human RXFP1; 30 min at rt; intracellular cAMP by HTRF
pEC50: −log10 of the molar value.
Metric: pEC50

COc1ccc(C(=O)NCC2(S(C)(=O)=O)CC2)cc1C(=O)Nc1c(C(=O)Nc2ccc(F)c(C(F)(F)F)c2)sc2cc(C(F)(F)F)ccc12 : 7.29
COc1ccc(C2=NOC3(C2)CN(C(=O)C(C)(C)O)C3)cc1C(=O)Nc1c(C(=O)Nc2ccc(F)c(C(F)(F)F)c2)sc2cc(C(F)(F)F)ccc12 : 5.89
COc1ccc(C#CC(C)(C)O)cc1C(=O)Nc1c(C(=O)Nc2ccc(F)c(C(F)(F)F)c2)sc2cc(C(F)(F)F)ccc12 : 6.25
